Form field: IC50 (one value per entry).
Biological target: FAK (Homo sapiens)
Sequence (Q05397 whole entry): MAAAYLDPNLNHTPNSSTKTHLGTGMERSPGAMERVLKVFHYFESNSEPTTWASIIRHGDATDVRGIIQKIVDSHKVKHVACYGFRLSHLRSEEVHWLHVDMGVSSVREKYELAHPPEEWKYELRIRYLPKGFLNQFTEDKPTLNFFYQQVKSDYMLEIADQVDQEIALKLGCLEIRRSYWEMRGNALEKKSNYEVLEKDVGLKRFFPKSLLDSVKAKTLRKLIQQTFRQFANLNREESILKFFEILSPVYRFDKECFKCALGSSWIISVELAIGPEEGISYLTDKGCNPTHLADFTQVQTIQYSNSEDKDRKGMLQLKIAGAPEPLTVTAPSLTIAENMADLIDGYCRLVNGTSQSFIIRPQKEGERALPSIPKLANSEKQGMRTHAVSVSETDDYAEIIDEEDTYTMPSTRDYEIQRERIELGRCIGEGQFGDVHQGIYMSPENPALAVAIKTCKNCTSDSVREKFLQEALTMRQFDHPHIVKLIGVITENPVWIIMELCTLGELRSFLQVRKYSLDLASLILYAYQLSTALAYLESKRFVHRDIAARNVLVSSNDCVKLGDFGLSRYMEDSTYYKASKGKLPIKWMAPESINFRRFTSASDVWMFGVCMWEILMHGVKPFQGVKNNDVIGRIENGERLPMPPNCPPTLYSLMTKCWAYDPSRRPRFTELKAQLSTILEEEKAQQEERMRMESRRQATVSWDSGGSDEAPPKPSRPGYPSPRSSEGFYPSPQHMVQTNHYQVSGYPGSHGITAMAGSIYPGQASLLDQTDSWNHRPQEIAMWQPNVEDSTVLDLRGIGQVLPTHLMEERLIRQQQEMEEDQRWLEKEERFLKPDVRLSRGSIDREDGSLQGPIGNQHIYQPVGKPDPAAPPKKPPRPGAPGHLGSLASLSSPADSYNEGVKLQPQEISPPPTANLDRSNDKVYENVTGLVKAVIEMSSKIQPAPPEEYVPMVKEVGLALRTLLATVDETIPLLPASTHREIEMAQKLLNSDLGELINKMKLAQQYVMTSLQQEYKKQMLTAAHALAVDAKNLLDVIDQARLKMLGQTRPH
Assay: Cell-based capture ELISA for inhibition of FAK autophosphorylation [pY397] in MiaPaCa2 cells
Conditions: MIA-PaCa2 cells, + 50% mouse plasma (Table 3); read-out: Mean FAK Cell Mechanistic IC50 + 50% mP MIA-PaCa2

Smiles Code: CCOP(=O)(Cc1ccc(Nc2ncc(C(F)(F)F)c(Nc3ccc(N4CCOCC4)c4c3C(=O)N(C)C4)n2)cc1)OCC
IC50: < 1000 nM
--
Smiles Code: CCOP(=O)(O)Cc1ccc(Nc2ncc(C(F)(F)F)c(Nc3ccccc3C(=O)NC)n2)c(OC)c1
IC50: < 1000 nM
--
Smiles Code: CCOP(=O)(Cc1ccc(Nc2ncc(C(F)(F)F)c(Nc3ccc(N4CCN(C(C)=O)CC4)c4c3C(=O)N(C)C4)n2)cc1)OCC
IC50: < 1000 nM
--
Smiles Code: COCCOP(=O)(Cc1ccc(Nc2ncc(C(F)(F)F)c(Nc3cccc4c3C(=O)N(C)C4)n2)c(OC)c1)OCCOC
IC50: < 1000 nM
--
Smiles Code: CCOP(=O)(Cc1ccc(Nc2ncc(C(F)(F)F)c(Nc3ccccc3C(=O)NC)n2)c(Cl)c1)OCC
IC50: < 1000 nM
--
Smiles Code: CCOP(=O)(Cc1ccc(Nc2ncc(C(F)(F)F)c(Nc3cccc4ccn(C)c(=O)c34)n2)cc1)OCC
IC50: < 1000 nM
--
Smiles Code: CCOP(=O)(Cc1ccc(Nc2ncc(C(F)(F)F)c(Nc3ccc(C(=O)N4CCCC4)c4c3C(=O)N(C)C4)n2)c(OC)c1)OCC
IC50: < 1000 nM
--
Smiles Code: CCOP(=O)(Cc1ccc(Nc2ncc(C(F)(F)F)c(Nc3ccc(N4CCN(C)CC4)c4c3C(=O)N(C)C4)n2)cc1)OCC
IC50: < 1000 nM
--
Smiles Code: CCOP(=O)(Cc1ccc(Nc2ncc(C(F)(F)F)c(Nc3ccc(C(=O)N4CCCC4)c4c3C(=O)N(C)C4)n2)cc1)OCC
IC50: 1000 to 10000 nM
